# PROCEDURE SUMMARY: compound fluorescence in toxin protease inhibitor counterscreen, primary screen, artefact control for toxin protease inhibitor project, biochemical, multiplex microsphere, HTS (AID 624483)
# CONDITION PARAMETERS: compound autofluorescence counterscreen, microsphere flow cytometry; active compounds read high
In all, about 360,000 compounds went through this assay and about 11,000 (3.1%) were called active. About 2% were inconclusive and are not listed. Many of the other results were omitted from the sample, so actives are more common in it than they were.

{"COMPOUND": "CCc1nc2ccc(C(=O)N3CCC(O)(Cc4ccccc4)CC3)cn2c1N(C)C(=O)Cc1ccccc1", "fluorescence intensity": 3520}
{"COMPOUND": "COc1ccc(CCNC2=CC(=O)CC(C)(C)C2)cc1", "fluorescence intensity": 3550}
{"COMPOUND": "CCCC(=O)N1CCC1(C)C(=O)Nc1ccc(-n2cncn2)cc1 (stereo not given)", "fluorescence intensity": 4100}
{"COMPOUND": "COC(=O)[C@]12CCCCC=C1N(Cc1cccc3ccccc13)C(=O)[C@H](CC(=O)N1CCOCC1)C2", "fluorescence intensity": 4200}
{"COMPOUND": "CCCCOC(=O)NCN1C(=O)C2C3C=CC(C3)C2C1=O (stereo not given)", "fluorescence intensity": 3370}
{"COMPOUND": "CC1(C)CC(=O)C=C(NCc2ccncc2)C1", "fluorescence intensity": 16700}
{"COMPOUND": "O=C1Nc2ccccc2NC(c2ccc3c(c2)OCO3)=C1N(Cc1ccc(F)cc1)C(=O)c1ccco1", "fluorescence intensity": 5250}
{"COMPOUND": "CCn1c(O)c(N=NC(=O)c2cccc(S(=O)(=O)N3CCCCC3)c2)c2ccccc21", "fluorescence intensity": 2120}
{"COMPOUND": "CCNC(=O)C1(C)CCCN(C(=O)c2ccc3ccccc3n2)C1 (stereo not given)", "fluorescence intensity": 2790}
{"COMPOUND": "Cc1cc(/C=N/NC(N)=O)c(C)n1C1CCCCC1", "fluorescence intensity": 5160}
